target: CFTR-mediated chloride transport in human intestinal epithelial enteroid cells (Homo sapiens, UniProt P13569); test: Membrane potential dye, Enteroid Assay A; assay type: cell-based; conditions: percentage of chloride transport of triple combination control (3 μM N-[(6-amino-2-pyridyl)sulfonyl]-6-(3-fluoro-5-isobutoxy-phenyl)-2-[(4S)-2,2,4-trimethylpyrrolidin-1-yl]pyridine-3-carboxamide based)
property label: Ent. A Max Activity (%)

Below: 5 molecules and their reported Ent. A Max Activity (%).
{"molecule": "Cc1cccc(C)c1-c1cc2nc(n1)NS(=O)(=O)c1cccc(c1)C(=O)N1CCN(C(=O)NC(C)C(C)C)C[C@@H]1CO2 (stereo partly drawn) [Compound 292]", "Ent. A Max Activity (%)": "++ (++ is 30-60%)"}
{"molecule": "Cc1cccc(C)c1-c1cc2nc(n1)NS(=O)(=O)c1cccc(c1)C(=O)N1Cc3ccccc3[C@@H](C1)O2 [Compound 318]", "Ent. A Max Activity (%)": "+ (+ is <300%)"}
{"molecule": "Cc1cccc(C)c1-c1cc2nc(n1)NS(=O)(=O)c1cccc(c1)C(=O)N1CCN(Cc3ccn[nH]3)C[C@@H]1CO2 [Compound 288]", "Ent. A Max Activity (%)": "+ (+ is <300%)"}
{"molecule": "Cc1cccc(C)c1-c1cc2nc(n1)NS(=O)(=O)c1cccc(c1)C(=O)N1CCN(Cc3ccccn3)C[C@@H]1CO2 [Compound 281]", "Ent. A Max Activity (%)": "++ (++ is 30-60%)"}
{"molecule": "Cc1cccc(C)c1-c1cc2nc(n1)NS(=O)(=O)c1cccc(c1)C(=O)N1CCN(C(=O)OC(C)(C)C)C(CO2)C1 (stereo not drawn) [Compound 322]", "Ent. A Max Activity (%)": "++ (++ is 30-60%)"}

Consider the additional molecule presented here.
Lab note: measured Ent. A Max Activity (%) of Cc1cccc(C)c1-c1cc2nc(n1)NS(=O)(=O)c1cccc(c1)C(=O)N1CC3CC(O2)C1C3 (stereo not drawn) [Compound 365] was ++ (++ is 30-60%)

====

biological target: CFTR-mediated short-circuit current in F508del/MF-HBE cells (Homo sapiens, UniProt P13569, DEL508-508); construct: human bronchial epithelial (HBE) cells derived from CF subjects; endogenous in cells; host or cells: primary human bronchial epithelial cells from CF subjects (F508del/MF-HBE); assay: HBE2 assay: Ussing chamber assay of CFTR-mediated short-circuit currents; assay type: cell-based
Sequence (P13569 with tags, fused parts or gaps DEL508-508): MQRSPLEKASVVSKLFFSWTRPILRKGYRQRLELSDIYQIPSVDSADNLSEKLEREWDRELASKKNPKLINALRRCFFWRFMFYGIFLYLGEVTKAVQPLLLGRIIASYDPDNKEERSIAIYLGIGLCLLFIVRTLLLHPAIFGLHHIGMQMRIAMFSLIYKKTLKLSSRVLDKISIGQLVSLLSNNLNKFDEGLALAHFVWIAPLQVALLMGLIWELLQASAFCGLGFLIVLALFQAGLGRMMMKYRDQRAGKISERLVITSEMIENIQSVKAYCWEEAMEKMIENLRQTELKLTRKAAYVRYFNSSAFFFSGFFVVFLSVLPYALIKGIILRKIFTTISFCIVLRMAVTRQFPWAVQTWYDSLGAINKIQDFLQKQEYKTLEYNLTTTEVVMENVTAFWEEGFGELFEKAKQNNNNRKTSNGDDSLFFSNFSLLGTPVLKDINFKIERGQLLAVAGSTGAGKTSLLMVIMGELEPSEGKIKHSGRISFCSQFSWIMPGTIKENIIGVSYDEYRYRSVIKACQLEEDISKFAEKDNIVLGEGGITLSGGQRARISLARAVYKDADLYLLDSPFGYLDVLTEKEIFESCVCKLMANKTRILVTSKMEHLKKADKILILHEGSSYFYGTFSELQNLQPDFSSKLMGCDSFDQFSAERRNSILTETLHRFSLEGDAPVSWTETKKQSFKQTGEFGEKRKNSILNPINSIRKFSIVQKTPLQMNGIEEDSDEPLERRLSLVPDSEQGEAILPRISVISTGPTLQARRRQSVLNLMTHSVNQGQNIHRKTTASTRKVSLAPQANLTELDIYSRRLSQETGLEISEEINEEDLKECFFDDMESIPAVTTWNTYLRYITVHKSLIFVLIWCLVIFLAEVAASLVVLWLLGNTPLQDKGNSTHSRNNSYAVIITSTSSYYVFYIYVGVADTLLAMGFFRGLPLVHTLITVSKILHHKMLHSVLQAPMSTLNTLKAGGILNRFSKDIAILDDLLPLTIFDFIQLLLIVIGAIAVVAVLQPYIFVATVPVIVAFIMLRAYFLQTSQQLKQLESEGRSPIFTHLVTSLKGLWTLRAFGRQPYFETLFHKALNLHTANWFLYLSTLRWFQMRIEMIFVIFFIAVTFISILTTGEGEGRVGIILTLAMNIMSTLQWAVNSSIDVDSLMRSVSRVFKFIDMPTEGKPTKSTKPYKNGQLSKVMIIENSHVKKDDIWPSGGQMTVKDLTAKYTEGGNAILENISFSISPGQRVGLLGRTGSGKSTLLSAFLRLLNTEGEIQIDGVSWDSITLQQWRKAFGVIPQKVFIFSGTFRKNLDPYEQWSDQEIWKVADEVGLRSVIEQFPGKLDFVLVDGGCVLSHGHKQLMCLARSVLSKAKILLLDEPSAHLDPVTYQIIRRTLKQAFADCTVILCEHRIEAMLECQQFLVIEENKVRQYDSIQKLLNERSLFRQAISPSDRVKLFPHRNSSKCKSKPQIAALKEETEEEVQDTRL
Each entry below lists one item and its recorded activation at 3 µM value.

Consider the following illustrative entries.
{"compound": "Cc1cccc(C)c1-c1cc2nc(n1)NS(=O)(=O)c1cccc(c1)C(=O)N1[C@@H](c3cncc(N(C)C4CCC4)n3)CC[C@H](O2)[C@H]1CC(C)C (single isomer, unassigned) [Compound 411]", "activation at 3 µM": "30 to 60%"}
{"compound": "Cc1cccc(C)c1-c1cc2nc(n1)NS(=O)(=O)c1cccc(c1)C(=O)N1[C@@H](c3ncc(OC(C)C)cn3)CC[C@H](O2)[C@H]1CC(C)C [Compound 426]", "activation at 3 µM": "30 to 60%"}

We now examine a further compound.
compound Cc1cccc(C)c1-c1cc2nc(n1)NS(=O)(=O)c1cccc(c1)C(=O)N1[C@@H](c3ncc(OC(C)C)cn3)CCC[C@H]1[C@H](CC(C)C)O2 [Compound 423] , activation at 3 µM observed: 30 to 60%

Every entry's value here was drawn from patent US20240018161A1.
